- measurement-protocol: log P by HPLC on reversed-phase columns (C 18), EEC directive 79/831 Annex V.A8
- Format: physicochemical
- run-parameters: reversed-phase C18 HPLC column, pH 7.8, neutral range, pH 7.8, 0.001 molar aqueous ammonium bicarbonate / acetonitrile; read-out: log P[b]
The threshold is inclusive: chromatographic logP of exactly 3 counts as TRUE; values below receive FALSE.

Illustrative cases are given below, each with its answer.
| molecule | class |
| --- | --- |
| Cc1cc(F)c(NC(=O)c2cnn(C)c2N)cc1SCC(F)(F)F | FALSE |
| Cc1ccc(B2OC(C)(C)C(C)(C)O2)cc1SCC(F)(F)F | TRUE |
| Nc1cc(SCC(F)(F)F)ccc1F [IVa-5] | FALSE |
| O=C(Nc1cc(SCC(F)(F)F)c(Cl)cc1F)C(F)(F)F [Compound X-2] | TRUE |
| Cc1ccc(Br)cc1S(=O)(=O)Cl | TRUE |

Request: Hi, just wondering whether FC(F)(F)CSc1cc(Br)ccc1C(F)(F)F [VIIa-10] shows chromatographic logP of 3 or higher.
Response: TRUE

Request: Has Nc1cc(SSc2cc(N)c(Cl)cc2Cl)c(Cl)cc1Cl [XVIII-6] a recorded chromatographic logP greater than or equal to 3?
Response: TRUE

Request: Form field: chromatographic logP at least 3? Entry: Cc1ccc(B(O)O)cc1[S+]([O-])CC(F)(F)F (centres unmarked) [VIIIb-7]
Response: FALSE

Request: Please indicate if the recorded chromatographic logP for Nc1ccc(Cl)c(SSc2cc(N)ccc2Cl)c1 [XVIII-3, 3,3′-Disulphanediylbis(4-chloroaniline)] meets or exceeds 3.
Response: TRUE

Request: In plain terms: is recorded chromatographic logP at least 3 for Cc1cc(F)c(N)cc1[S+]([O-])CC(F)(F)F (centres unmarked) [IVb-1] ?
Response: FALSE
